# Tested on: AD38 cells
# run.description: Viability of AD38 cells (Promega CellTiter-Glo)
# Type: cell-based
# measurement.setup: 10 μM compound, 6 days, CellTiter-Glo luminescence normalized to DMSO control (100%)
In this section, each of the compounds is paired with its reported AD38 Viability Normalized Result (cmpd/DMSO %) at 10 μM.
The response must be a number in % with no trailing unit.

Ask: Could you tell me which AD38 Viability Normalized Result (cmpd/DMSO %) at 10 μM is on file for CC(C)(O)Cc1ccccc1-c1ncc(CNC(=O)c2ccc3c(c2)NC(=O)c2ccccc2S3(=O)=O)s1 [compound 1840] ?
Result: 107

---
Ask: Could you tell me which AD38 Viability Normalized Result (cmpd/DMSO %) at 10 μM is on file for O=C(NCc1cnc(-c2ccc(C(=O)NC3CC3)cc2)s1)c1ccc2c(c1)NC(=O)c1ccccc1S2(=O)=O [compound 1949] ?
Result: 99

Ask: # query: AD38 Viability Normalized Result (cmpd/DMSO %) at 10 μM of entry N#CC1(COc2ccc(-c3ncc(CNC(=O)c4ccc5c(c4)NC(=O)c4ccccc4S5(=O)=O)s3)cc2)CCC1 [compound 11182]
Result: 104

Ask: Query (compound): Cl.O=C(NCc1cnc(-c2ccc(C(=O)N3CCNCC3)cc2)s1)c1ccc2c(c1)NC(=O)c1ccccc1S2(=O)=O [compound 11016] ; field requested: AD38 Viability Normalized Result (cmpd/DMSO %) at 10 μM
Result: 106

Ask: What value of AD38 Viability Normalized Result (cmpd/DMSO %) at 10 μM has been recorded for this entry: CN(C)c1ccc(-c2ncc(CNC(=O)c3ccc4c(c3)NC(=O)c3ccccc3S4(=O)=O)s2)cc1 [compound 1645]
Result: 101

Ask: For O=C(O)CSc1ncc(CNC(=O)c2ccc3c(c2)NC(=O)c2ccccc2S3(=O)=O)s1 [compound 1589] , what is its reported AD38 Viability Normalized Result (cmpd/DMSO %) at 10 μM?
Result: 98

----------
# Test system: AD38 cells
# run.description: Viability of AD38 cells (Promega CellTiter-Glo)
# Format: cell-based
# measurement.setup: 10 μM compound, 6 days, CellTiter-Glo luminescence normalized to DMSO control (100%)
# Protocol: Example 2: Assay Measuring Activity of Compounds on Viral Production in and on Viability of AD38 Cells AD38 cells were then re-suspended with 10 mL of Treatment Medium and counted. […] At the end of compound treatment period cell viability was assessed using a Promega CellTiter-Glo protocol. […]
In this section we review reported AD38 Viability Normalized Result (cmpd/DMSO %) at 10 μM values for a set of molecules.
# unit: % | format: bare number

Example molecules with recorded AD38 Viability Normalized Result (cmpd/DMSO %) at 10 μM:
Ask: Given O=C(O)c1ccc(-c2ncc(CNC(=O)c3ccc4c(c3)NC(=O)c3ccccc3S4(=O)=O)s2)cc1 , state its recorded AD38 Viability Normalized Result (cmpd/DMSO %) at 10 μM.
Result: 96

Ask: Fill in: AD38 Viability Normalized Result (cmpd/DMSO %) at 10 μM of COc1ccc(Cc2ncc(CNC(=O)c3ccc4c(c3)NC(=O)c3ccccc3S4(=O)=O)s2)cc1 is ___
Result: 92

Ask: Would you mind telling me what AD38 Viability Normalized Result (cmpd/DMSO %) at 10 μM value was observed for CS(=O)(=O)c1ccc(-c2ncc(CNC(=O)c3ccc4c(c3)NC(=O)c3ccccc3S4(=O)=O)s2)cc1 ?
Result: 102

Continuing:
Ask: // AD38 Viability Normalized Result (cmpd/DMSO %) at 10 μM lookup, key: CN1CCN(c2ncc(CNC(=O)c3ccc4c(c3)NC(=O)c3ccccc3O4)s2)CC1
Result: 91

Ask: Find the recorded AD38 Viability Normalized Result (cmpd/DMSO %) at 10 μM belonging to O=C(NCc1cnc(-c2ccc(F)cn2)s1)c1ccc2c(c1)NC(=O)c1ccccc1S2(=O)=O and report it.
Result: 104

Ask: GET /values?readout=AD38 Viability Normalized Result (cmpd/DMSO %) at 10 μM&item= CN(C)CCOc1ccc(-c2ncc(CNC(=O)c3ccc4c(c3)NC(=O)c3ccccc3S4(=O)=O)s2)cc1
Result: 101

Ask: Dear colleague, I am looking for the recorded AD38 Viability Normalized Result (cmpd/DMSO %) at 10 μM of the following molecule: CN(C)c1ccc(-c2ncc(CNC(=O)c3ccc4c(c3)NC(=O)c3ccccc3O4)s2)cc1
Result: 90

Ask: Give the measured AD38 Viability Normalized Result (cmpd/DMSO %) at 10 μM of CC(NC(=O)c1ccc2c(c1)NC(=O)c1ccccc1S2)c1cncs1 (racemic) .
Result: 101

Ask: Sample Cc1cc2c(cc1C(=O)NCc1cnc(-c3ccc(O)cc3)s1)NC(=O)c1ccccc1S2 — what was its AD38 Viability Normalized Result (cmpd/DMSO %) at 10 μM?
Result: 15

Ask: Name the recorded AD38 Viability Normalized Result (cmpd/DMSO %) at 10 μM for CCc1ncc(CNC(=O)c2ccc3c(c2)NC(=O)c2ccccc2O3)s1 .
Result: 106

----------
Each entry below carries its recorded AD38 Viability Normalized Result (cmpd/DMSO %) at 10 μM.
# System: AD38 cells
# run.description: Viability of AD38 cells (Promega CellTiter-Glo)
# Type: cell-based
# measurement.setup: 10 μM compound, 6 days, CellTiter-Glo luminescence normalized to DMSO control (100%)
Express it in %; write the number only.

These recorded examples may help you get a feel for the data.
Ask: If you can, please state the reported AD38 Viability Normalized Result (cmpd/DMSO %) at 10 μM value of O=C1CCN(c2ncc(CNC(=O)c3ccc4c(c3)NC(=O)c3ccccc3S4(=O)=O)s2)CCN1 .
Result: 100

Ask: Name the reported AD38 Viability Normalized Result (cmpd/DMSO %) at 10 μM value associated with the molecule CCN(CC)CCCSc1ccc(-c2ncc(CNC(=O)c3ccc4c(c3)NC(=O)c3ccccc3S4(=O)=O)s2)cc1
Result: 102

Ask: # get_value(readout='AD38 Viability Normalized Result (cmpd/DMSO %) at 10 μM', item= CCc1cc2c(cc1C(=O)NCc1cnc(C(F)(F)F)s1)NC(=O)c1ccccc1S2(=O)=O )
Result: 94

Ask: Field request: AD38 Viability Normalized Result (cmpd/DMSO %) at 10 μM | item: O=C(NCc1cnc(-c2cc(O)ccn2)s1)c1ccc2c(c1)NC(=O)c1ccccc1S2(=O)=O
Result: 104

Ask: Field request: AD38 Viability Normalized Result (cmpd/DMSO %) at 10 μM | item: N#Cc1ncc(CNC(=O)c2ccc3c(c2)NC(=O)c2ccccc2S3)s1
Result: 63

Others:
Ask: May I ask what AD38 Viability Normalized Result (cmpd/DMSO %) at 10 μM has been recorded for O=C(NCc1cnc(-c2ccc(OCC3CCNCC3)cc2)s1)c1ccc2c(c1)NC(=O)c1ccccc1S2(=O)=O ?
Result: 96

Ask: Quick check: AD38 Viability Normalized Result (cmpd/DMSO %) at 10 μM of Cc1nc(C)c(CNC(=O)c2ccc3c(c2)NC(=O)c2ccccc2S3(=O)=O)s1 ?
Result: 93

----------
# Test system: AD38 cells
# run.description: Viability of AD38 cells (Promega CellTiter-Glo)
# Assay type: cell-based
# measurement.setup: 10 μM compound, 6 days, CellTiter-Glo luminescence normalized to DMSO control (100%)
# Description: Example 2: Assay Measuring Activity of Compounds on Viral Production in and on Viability of AD38 Cells AD38 cells were then re-suspended with 10 mL of Treatment Medium and counted. […] At the end of compound treatment period cell viability was assessed using a Promega CellTiter-Glo protocol. […]
value.kind: AD38 Viability Normalized Result (cmpd/DMSO %) at 10 μM
The response must be a number in % with no trailing unit.

Ask: # get_value(readout='AD38 Viability Normalized Result (cmpd/DMSO %) at 10 μM', item= O=C(NCc1cnc(-c2nccs2)s1)c1ccc2c(c1)NC(=O)c1ccccc1S2(=O)=O )
Result: 103

Ask: Report AD38 Viability Normalized Result (cmpd/DMSO %) at 10 μM for O=C(NCc1cnc(-c2ccc(-n3cccn3)cc2)s1)c1ccc2c(c1)NC(=O)c1ccccc1S2(=O)=O please.
Result: 106

Ask: Reported AD38 Viability Normalized Result (cmpd/DMSO %) at 10 μM, compound Cc1cc(-c2ncc(CNC(=O)c3ccc4c(c3)NC(=O)c3ccccc3S4(=O)=O)s2)cc(C)c1O : ____
Result: 105

Ask: I would be grateful if you could share the reported AD38 Viability Normalized Result (cmpd/DMSO %) at 10 μM for N#Cc1cccc(-c2ncc(CNC(=O)c3ccc4c(c3)NC(=O)c3ccccc3O4)s2)c1 .
Result: 106

Ask: Sample NC(=O)c1cccc(-c2ncc(CNC(=O)c3ccc4c(c3)NC(=O)c3ccccc3S4(=O)=O)s2)c1 — what was its AD38 Viability Normalized Result (cmpd/DMSO %) at 10 μM?
Result: 89

Ask: Suppose we examine the compound CC(C)c1cnn(-c2ncc(CNC(=O)c3ccc4c(c3)NC(=O)c3ccccc3S4(=O)=O)s2)c1 ; what AD38 Viability Normalized Result (cmpd/DMSO %) at 10 μM value has been reported?
Result: 110

Ask: Requested field: AD38 Viability Normalized Result (cmpd/DMSO %) at 10 μM. Item: O=C(NCc1cnc(-c2ccc(O)cc2)s1)c1ccc2c(c1)NC(=O)c1ccc(Cl)cc1S2
Result: 97
